experiment: Cytotoxicity, CellTiter-Glo cell viability, Vero cells; format: cell-based; conditions: African green monkey, read-out: half-cytotoxic concentration (CC50)
Outcome measure: CC50 at 72 h (µM)
Note: unit µM is implicit; provide only the numeric part.

Q: I'd like to know its CC50 at 72 h. The compound in question is O=c1[nH]c(=NO)ccn1[C@@H]1O[C@H](CO)[C@@H](O)[C@H]1O [EIDD-1931, β-D-N^4-hydroxycytidine]
Ans: 14.1

----------
assay: Cytotoxicity, CellTiter-Glo cell viability, RD cells; assay type: cell-based, Human; conditions: human, read-out: half-cytotoxic concentration (CC50)
Outcome measure: CC50 at 72 h (µM)
Response body: numeric value in µM, unit text excluded.

Q: For the molecule shown here, O=c1[nH]c(=NO)ccn1[C@@H]1O[C@H](CO)[C@@H](O)[C@H]1O [EIDD-1931, β-D-N^4-hydroxycytidine] , give the reported CC50 at 72 h.
Ans: 80.5
